Origin of the recorded values: PubChem BioAssay

assay: basal RPMI8226 viability, no added stimulus, profiling panel, cell-based, calcein-AM fluorescence, 48 h, PK04 Diversity Set (AID 1166); conditions: RPMI8226 myeloma viability, higher = more signal;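 note: cells grown under basal conditions without added stimulus; test concentration not given here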
result.type: z-score

Would you please look over these solved cases?
| compound | z-score |
| --- | --- |
| NCCCCCNC(=O)[C@@H]1C[C@@H]2C(=O)N[C@@H](CCCCN)C(=O)N2[C@@H]1c1cccc(OCCO)c1 | 0.269 |
| CC(C)(C)OC(=O)CC[C@]1(C(=O)O)N=C(c2ccc(OCCCO)cc2)O[C@H]1c1ccccc1CN=[N+]=[N-] | 0.375 |

Exercise: I'd like to know its z-score. The compound in question is COCCCNC(=O)[C@@]1(Sc2ccc(C)cc2)CC(=O)N(C2Cc3ccccc3C2)[C@@H]1c1ccc(CO)cc1I
Key: -2.27

Exercise: What does the record list as z-score for COc1ccc(C(O)C2C=CC3C(=O)N(c4ccccc4)C(=O)C3N2Nc2ccc(C#N)cc2)c2ccccc12 (centres undefined) ?
Key: -1.04
